Here, each record is paired with measured IC50 at 24 h data.
Assay: Cell viability (resazurin) on ARPE-19
Type: cell-based, human
Recorded Conditions: human, ARPE-19 cells, ARPE-19, 24 h; read-out: 24 h Exposure IC50 (cytotoxicity)

Molecule	IC50 at 24 h, µM
CC1=C(/C=C/C(C)=N/Nc2nc(-c3ccc(O)c(O)c3)cs2)C(C)(C)CCC1.Cl [Compound 5b]	31.5
C/C=C/C=N/Nc1nc(-c2ccc(O)c(O)c2)cs1.Cl [Compound 5a]	90.1

====

Assay: Cell viability (resazurin) on A549
Format: cell-based
Recorded Conditions: human, A549 cells; A549, 48 h; read-out: 48 h Exposure IC50 (cytotoxicity)
Here, each record is paired with measured IC50 at 48 h data.
Endpoint Label: IC50 at 48 h (µM)

Test Smiles	Endpoint Label	Units	Endpoint Value
C/C=C/C=N/Nc1nc(-c2ccc(O)c(O)c2)cs1.Cl	IC50 at 48 h	µM	109
CC1=C(/C=C/C(C)=N/Nc2nc(-c3ccc(O)c(O)c3)cs2)C(C)(C)CCC1.Cl	IC50 at 48 h	µM	39.6

====

Here, each record is paired with measured IC50 at 24 h data.
Assay: Cell viability (resazurin) on A549
Format: cell-based
Recorded Conditions: human, A549 cells; A549, 24 h; read-out: 24 h Exposure IC50 (cytotoxicity)

Test Smiles	IC50 at 24 h, µM
C/C=C/C=N/Nc1nc(-c2ccc(O)c(O)c2)cs1.Cl	147
CC1=C(/C=C/C(C)=N/Nc2nc(-c3ccc(O)c(O)c3)cs2)C(C)(C)CCC1.Cl	167

====

Assay: Cell viability (resazurin) on BJ
Type: cell-based
Recorded Conditions: human, BJ cells, 24 h, read-out: 24 h Exposure IC50 (cytotoxicity)
Here, each record is paired with measured IC50 at 24 h data.

Test Smiles	IC50 at 24 h (µM)
CC1=C(/C=C/C(C)=N/Nc2nc(-c3ccc(O)c(O)c3)cs2)C(C)(C)CCC1.Cl	141
C/C=C/C=N/Nc1nc(-c2ccc(O)c(O)c2)cs1.Cl	144

Data origin: paper PMC12189671
